growth listing for selected compounds.
system: M14 melanoma; assay: NCI-60 one-dose screen, 48 h (100 = growth as untreated, 0 = no growth, -100 = all killed); details: 10 µM unless noted
The panel holds about 83,000 compounds, 20% with a hit somewhere; the sample as a whole holds those more often. Active and inactive are the calls of the source. Rule for the calls: active = growth percent below 10; inactive = the rest.

Consider the worked cases shown below.
# compoundSmiles, resultType, result
measured = [
    ("N#CSc1c[nH]c2ccc(/C=C/C(=O)/C=C(O)/C=C/c3ccc4[nH]cc(SC#N)c4c3)cc12", "growth", "-5.11% (active)"),
    ("COc1c2c(cc3c1C(=O)N[C@@H]1[C@@H](O)[C@@H](O)[C@H](O)C[C@@H]31)OCCO2", "growth", "105% (inactive)"),
    ("N#Cc1c(-c2ccccc2)cc(-c2ccccc2)n(CCCCC(=O)NO)c1=O", "growth", "19.1% (inactive)"),
]

Alright, here's another compound for you.
Q: Quick one: give measured growth for O=C(O)c1cn(C2CC2)c2cc(N3CCN(C(=O)N/N=C/c4cccc5ccccc45)CC3)c(F)cc2c1=O
A: 93.1% (inactive)

----------
test system: MDA-MB-435 melanoma; assay: NCI-60 one-dose screen, 48 h; details: 10 µM unless noted
Compounds without any hit were thinned out: in the full panel of roughly 83,000, 20% have a hit. Active and inactive are the calls of the source. How the source made its calls: active means growth percent below 10; inactive means the rest.
Form entry, call: pick from YES = active, NO = inactive

# molecule, classification
rows = [
    ("CCOC(=O)c1[nH]cc2c1CCc1sc(Nc3ccccn3)nc1-2", "NO"),
    ("Cc1[nH]c(C(=O)Nc2ccccc2OC2CCN(CCN3CCOCC3)CC2)c(Cl)c1Cl", "NO"),
    ("COc1ccc(Nc2ncc(C#N)c(NCCCNC(=O)C3CCC3)n2)cc1", "NO"),
    ("N#Cc1c(-c2ccc(Cl)cc2)nc(NN=Cc2ccc[nH]2)nc1N1CCOCC1", "NO"),
    ("COc1ccc(C(c2cc(OC)c(OC)c(OC)c2)N2CCCCC2)cc1 (stereo unspecified)", "YES"),
    ("CC/C(=C(\\c1ccc(Cl)cc1)c1ccc(OCCN2CCCCC2)cc1)c1ccc(O)cc1", "YES"),
    ("N#Cc1ccccc1-c1ccc(CN2C(=O)S/C(=C\\c3ccc(Br)cc3)C2=O)cc1", "NO"),
    ("C=CC(CC(c1ccccc1)(c1ccccc1)c1ccccc1)N(CC)CC (stereo unspecified)", "NO"),
]

Shift focus to the following entry.
Q: Short answer needed: outcome of this test for COc1cc(OC)c2c(=O)c3c(CC=C(C)C)cc(OC)c(O)c3oc2c1 ?
A: NO

----------
system: CAKI-1 renal; experiment: NCI-60 one-dose screen, 48 h (100 = growth as untreated, 0 = no growth, -100 = all killed); settings: 10 µM unless noted
The panel holds about 83,000 compounds, 20% with a hit somewhere; the sample as a whole holds those more often.
Listed here: items and their measured growth.
Give your result in % as a bare value.

# molecule, growth / %
data = [
    ("Cc1ccc(O)c(NC(=O)c2cccc(Nc3ccnc(C(F)(F)F)c3)c2)c1", 41.6),
    ("Nc1c(C(=O)Nc2cccc3ncccc23)sc2nc3c(cc12)CN(Cc1ccccc1)CC3", 74.1),
    ("CC(=O)c1sc(-c2ccc(F)cc2)cc1O", 93.3),
    ("COC12C=C/C(=C(/C(=O)OCc3cncnc3)C(=O)CCCCCCCCC3(OC)C=C/C(=C(/C(=O)OCc4cncnc4)C(=O)CCCCCCCC1)O3)O2", -43.5),
]

// switching to the query molecule
Q: Specify reported growth for the molecule shown: COc1ccc(C2CC(n3ccnc3)c3cc(OC)c(OC)c(OC)c32)cc1O (stereo not given)
A: 74.5

These data points were gathered from PubChem BioAssay (NCI).
